meta.source: ChEMBL document CHEMBL4145572

# TESTED SYSTEM: Keap1/Nrf2 (Homo sapiens)
# Sequence (Q16236 whole entry, the tested form may be a part): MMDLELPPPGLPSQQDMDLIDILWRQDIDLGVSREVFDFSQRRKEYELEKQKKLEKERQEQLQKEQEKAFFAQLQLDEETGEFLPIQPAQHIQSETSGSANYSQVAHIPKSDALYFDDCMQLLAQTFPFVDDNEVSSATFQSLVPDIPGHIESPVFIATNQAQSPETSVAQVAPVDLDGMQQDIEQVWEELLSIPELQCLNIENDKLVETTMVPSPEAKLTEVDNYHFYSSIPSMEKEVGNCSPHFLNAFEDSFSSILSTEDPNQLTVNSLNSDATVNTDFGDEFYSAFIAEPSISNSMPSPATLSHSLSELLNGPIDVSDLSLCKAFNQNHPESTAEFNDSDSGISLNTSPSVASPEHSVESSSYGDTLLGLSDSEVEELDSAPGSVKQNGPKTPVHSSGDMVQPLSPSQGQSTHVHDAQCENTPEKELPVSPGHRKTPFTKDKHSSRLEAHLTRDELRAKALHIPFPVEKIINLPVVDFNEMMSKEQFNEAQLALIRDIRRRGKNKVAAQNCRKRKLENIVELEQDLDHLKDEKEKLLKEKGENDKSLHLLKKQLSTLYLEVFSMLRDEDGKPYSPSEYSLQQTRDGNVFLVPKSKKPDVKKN
# Sequence (Q14145 whole entry, the tested form may be a part): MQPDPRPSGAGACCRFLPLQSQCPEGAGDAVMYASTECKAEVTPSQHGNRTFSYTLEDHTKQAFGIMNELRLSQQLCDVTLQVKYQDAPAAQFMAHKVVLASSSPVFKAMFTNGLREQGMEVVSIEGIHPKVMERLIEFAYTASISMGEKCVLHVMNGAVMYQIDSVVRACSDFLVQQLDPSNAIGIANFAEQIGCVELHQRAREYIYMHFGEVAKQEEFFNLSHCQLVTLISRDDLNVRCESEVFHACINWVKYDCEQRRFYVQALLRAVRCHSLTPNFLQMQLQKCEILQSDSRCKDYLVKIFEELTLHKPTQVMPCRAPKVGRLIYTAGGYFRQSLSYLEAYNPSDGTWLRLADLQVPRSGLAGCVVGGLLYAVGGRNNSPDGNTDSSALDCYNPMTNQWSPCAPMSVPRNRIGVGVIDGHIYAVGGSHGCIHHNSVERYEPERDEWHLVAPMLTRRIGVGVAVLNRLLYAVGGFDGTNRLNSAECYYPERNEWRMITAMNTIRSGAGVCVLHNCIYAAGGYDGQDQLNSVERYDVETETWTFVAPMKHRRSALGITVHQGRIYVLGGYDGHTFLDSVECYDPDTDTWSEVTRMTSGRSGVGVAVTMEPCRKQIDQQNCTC
# ASSAY COMMENT: Inhibition of Keap1 kelch domain (unknow origin)/Nrf2-ETGE peptide (unknown origin) interaction by fluorescence polarization assay
# Type: protein assay
pIC50: −log10 of the molar value.
Each entry below carries its reported pIC50.

Sample answers from the record:
O=C1c2ccccc2C(=O)N1C[C@@H]1c2ccccc2CCN1C(=O)C1CCCCC1    < 4.00
O=C(O)[C@H]1CCCC[C@H]1C(=O)N1CCc2ccccc2[C@H]1CN1Cc2ccccc2C1=O    5.96

# ---- query molecule ----
Query: Can you share its pIC50? I mean this molecule: `O=C(O)[C@H]1CCCC[C@H]1C(=O)N1CCc2ccccc2[C@H]1Cc1ccccc1`
Result: < 4.00
